Data provenance is the supplement of paper PMC10307832.

List of relative viability values.
# System: BEN
# procedure_summary: relative viability (nuclei count vs DMSO), 5 days (fraction); higher = more cells survive
# assay_context: first compound 1.265 µM
No unit in the answer, please; the number alone is enough.

Consider the worked cases shown below.
{"compound": "O=C(O)c1ccc(-c2c[nH]c3ncc(-c4ccccc4)cc23)cc1C1CCCC1 + Cc1nc(Nc2ncc(C(=O)Nc3c(C)cccc3Cl)s2)cc(N2CCN(CCO)CC2)n1 [Dasatinib] (partner 0.075 µM)", "tested_on": "BEN", "reported": 0.291}
{"compound": "O=C(O)c1ccc(-c2c[nH]c3ncc(-c4ccccc4)cc23)cc1C1CCCC1 + COc1cc2c(Oc3ccc(NC(=O)C4(C(=O)Nc5ccc(F)cc5)CC4)cc3F)ccnc2cc1OCCCN1CCOCC1 [Foretinib] (partner 0.25 µM)", "tested_on": "BEN", "reported": 0.765}
{"compound": "O=C(O)c1ccc(-c2c[nH]c3ncc(-c4ccccc4)cc23)cc1C1CCCC1 + COc1cccc2cc(-c3nc([C@H]4CC[C@H](C(=O)O)CC4)n4ncnc(N)c34)[nH]c12 [OSI-027] (partner 0.5 µM)", "tested_on": "BEN", "reported": 0.284}
{"compound": "O=C(O)c1ccc(-c2c[nH]c3ncc(-c4ccccc4)cc23)cc1C1CCCC1 + C[C@]1(O)C[C@@H](c2nc(-c3ccc4ccc(-c5ccccc5)nc4c3)c3c(N)nccn32)C1 [Linsitinib] (partner 1 µM)", "tested_on": "BEN", "reported": 0.859}
{"compound": "O=C(O)c1ccc(-c2c[nH]c3ncc(-c4ccccc4)cc23)cc1C1CCCC1 + N=C(N)NC(=N)NCCc1ccccc1 [Phenformin] (partner 250 µM)", "tested_on": "BEN", "reported": 0.246}

With those in mind, consider the next compound.
**Q:** May I ask what relative viability has been recorded for O=C(O)c1ccc(-c2c[nH]c3ncc(-c4ccccc4)cc23)cc1C1CCCC1 + CC1(C)CCC(c2ccc(Cl)cc2)=C(CN2CCN(c3ccc(C(=O)NS(=O)(=O)c4ccc(N[C@H](CCN5CCOCC5)CSc5ccccc5)c(S(=O)(=O)C(F)(F)F)c4)cc3)CC2)C1 [Navitoclax] (partner 0.5 µM) ?
**A:** 0.0505
